- Tested on: peptide loaded target cells or tumor target cells
- assay-details: 51Cr-release cytotoxicity assay with CTL clones
- Assay type: cell-based, human
- Parameters: key: +, CTL induced and recognize tumor cells; -, CTL induced but do not recognize tumor cells
- experimental-setup: HLA-A2
measured-endpoint: CTL induced against this HLA/peptide combination, specifically recognizing tumor cells

# count of solved cases: 5
CC(C)C[C@H](NC(=O)[C@@H](NC(=O)[C@H](C)NC(=O)[C@H](CO)NC(=O)[C@H](C)NC(=O)[C@H](CCCNC(=N)N)NC(=O)[C@H](CCC(=O)O)NC(=O)[C@H](CC(C)C)NC(=O)[C@H](CC(C)C)NC(=O)[C@H](C)N)[C@@H](C)O)C(=O)O
+
CC[C@H](C)[C@H](NC(=O)[C@H](CC(C)C)NC(=O)[C@H](Cc1c[nH]cn1)NC(=O)[C@H](CCC(N)=O)NC(=O)[C@H](CC(C)C)NC(=O)[C@H](CC(C)C)NC(=O)[C@@H](N)CO)C(=O)NCC(=O)N[C@@H](CC(C)C)C(=O)O
+
CC(C)C[C@H](NC(=O)[C@H](CC(C)C)NC(=O)[C@@H](NC(=O)[C@H](CC(=O)O)NC(=O)[C@H](CC(C)C)NC(=O)CNC(=O)[C@H](CC(=O)O)NC(=O)[C@H](CC(C)C)NC(=O)[C@@H](N)C(C)C)C(C)C)C(=O)O
+
CC(C)C[C@H](NC(=O)[C@@H]1CCCN1C(=O)[C@@H]1CCCN1C(=O)[C@H](Cc1ccccc1)NC(=O)[C@H](CC(C)C)NC(=O)[C@H](CCC(=O)O)NC(=O)[C@H](CCCNC(=N)N)NC(=O)[C@@H]1CCCN1C(=O)[C@H](CC(C)C)NC(=O)[C@@H](N)CC(C)C)C(=O)O
-
CC(C)C[C@H](NC(=O)[C@@H](N)CO)C(=O)N[C@@H](Cc1ccc(O)cc1)C(=O)N[C@@H](CO)C(=O)N[C@@H](Cc1ccccc1)C(=O)N1CCC[C@H]1C(=O)N[C@@H](CCC(=O)O)C(=O)N1CCC[C@H]1C(=O)N[C@@H](CCC(=O)O)C(=O)N[C@@H](C)C(=O)O
+

Now for a further molecule.
Query string: Lookup: CTL induced against this HLA/peptide combination, specifically recognizing tumor cells / peptide loaded target cells or tumor target cells / CC(C)C[C@H](NC(=O)[C@H](Cc1ccccc1)NC(=O)[C@H](Cc1ccccc1)NC(=O)[C@H](CC(C)C)NC(=O)[C@H](CO)NC(=O)[C@H](CC(=O)O)NC(=O)[C@@H](NC(=O)[C@H](Cc1ccc(O)cc1)NC(=O)[C@H](CC(C)C)NC(=O)[C@H](C)N)C(C)C)C(=O)O
Result string: +
